Values from the RNAGym collection of RNA variant scans (doi:10.1073/pnas.2313332121)

Provide the recorded polymerase ribozyme fitness (log ratio) for the entries that follow.
B1: TPR t1 (parent)
chain: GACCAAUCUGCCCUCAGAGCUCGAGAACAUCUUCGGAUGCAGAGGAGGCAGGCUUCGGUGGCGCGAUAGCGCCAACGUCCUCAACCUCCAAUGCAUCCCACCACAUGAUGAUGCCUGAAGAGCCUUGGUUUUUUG

Variants of: B1
PROCEDURE SUMMARY: polymerase ribozyme fitness, log enrichment relative to wild type (log ratio); higher = more active; in vitro selection for triplet polymerase activity
Answers are plain numbers.

INPUT SEQUENCE | EXPERIMENTAL ENDPOINT | OBSERVED MEASUREMENT
GACCAAUCUGCCCUCAGAGCUCGAGAACAUCUUCGGAUGCAGAGGAGGCAGGCUUUGGUGGCGCGAUAUCGCCAACGUCCUUAUCCUCCAAUGCAUCCCACCACAUGAUGAUGCCUGAAGAGCCUUGGUUUUUUG [C56U G69U C82U A84U] | polymerase ribozyme fitness (log ratio) | -3
GACCAAUCCGCCGUCAGAGCUCGAGAAGAUCUUCGGAUGCAGAGUAGGCAGGCUUCGGUGACGCGAUAGCGCCAACGUCCUCAACCUCCAAUGCAUCCCACCACAUGAUGAUGCCUGAAGAGCCUUGGUUUUUUG [U9C C13G C28G G45U G61A] | polymerase ribozyme fitness (log ratio) | -2.49
GACCAAUCUGCCCUCAGAGCUCGAGAACAUCUUCGGAUGCAGAGGAGGCAAGCUUCGGUGGCGCGAUAGCGGCAACGUCCUCAACCUCCAAUGCAACCCACCACAUGAUGAUGCCUGAAGAGCCUUGGUUUUUUG [G51A C72G U96A] | polymerase ribozyme fitness (log ratio) | -3.94

Return reported polymerase ribozyme fitness (log ratio) values for all items listed beneath this line.
1. GACCAAUCUGCCCUCAGAGAUCGAGAACAUCUUCGGAUGCAGAGCAGGCAGGCUUCGGUGGCGCGAUAGCGCCAACGUCCUCAACCUCCAAUGCAUCCCACCACAUGAUGAUGCCUGAAGAGCCUUGGUUUUUUG [C20A G45C]
2. GACCAAUCUGCCCUCAGAGCUCGAGAACAUCUUCGGAUGCAGAGGACGCAGGUUUCGGUGGCGCGAUAGCGCCAACGUCCUCAACCUCCAAUGCAUCCCACCACAUGAUGAUGCCUGAAGAGCCUUGGUUUUUUG [G47C C53U]

// result
1. -3.43
2. -0.348

For every item in the list below, what is its measured polymerase ribozyme fitness (log ratio)?
1. GACCAAUCUGCCCUCAGAGCUCGAGAACAUCUUCGGAUGCAGAGGAGGCAGGCUUCGGUGGCGCGAUAGCGUCAACGUCCUCAACCUCCAAUGCAUCCCAUCACAUGAUGAUGCCUGAAGAGCCUUGGUUUUUUG [C72U C101U]
2. GACCAAUCUGCCCUCAGAGCUCGAGAACAUCUUCGGAUGCAGAGGAGGCAGGCUUAGGUGGCGCGAUAGCGCCAACGUCCUCAACCUCCAAUGCAUCCCACCACAUGAUGAUGCCUGAAGAGACUUGGUUUUUUG [C56A C123A]
3. GACCAAUCUGCCCUCAGAGCUCGAGAACAUCUUCGGAUGCAGAGGAGGCAGGGUUAGGUAGCGCGAUAGCGCCAACGUCCUCAACCUCCAAUGCAUCCCACCACAUGAUGGUGCCUGAAGAGCCUUGGUUUUUUG [C53G C56A G60A A111G]
4. GACCAUUCUGACCUCAGAGCUCGAGAACAUCUUCGGAUGCAGAGGAGGCAGGCUUCGGUGGGGCGAUAGCGCCAACGUCCUCAACCUCCAAUGCAUCCCACCACAUGAUGAUGCCUGAAAAGCCUUGGUUUUUUG [A6U C11A C62G G120A]

// result
1. -0.522
2. 0.85
3. -0.505
4. -2.04

// for each variant in input: emit polymerase ribozyme fitness (log ratio)
1. GACCAAUCUGCCCUCAGAGCUCGAGAACAUCUUCGGAUGCAGAGGAGGCAGGCUUCGGUGGCGCGAUAGCGCCAACGUCCUCAACCUCCAAUCCAUCCCAACACAUGAUGAUGCCUGAAGAGACAUGGUUAUUUG [G93C C101A C123A U125A U131A]
2. GACCAAUCUGCCCUCAGAGCUCGAGAACAUCUUCGGAUGCAGAGGAGGCAGGCUUCGGUGGCGCGAUAGCGCCAACGUCCUCAACCUCGAAUGCAUCCCACCACAUGAUGAUGCCUGAAGAGCCUUUGUUUUUUG [C89G G127U]

// result
1: -1.5; 2: -2.9

Your task in this section: give polymerase ribozyme fitness (log ratio) for each listed record.
1. GACCAAUCUGCCCUCAGAACUCGAGAACAUCUUCGGAUGCAGAGGAGGCAGGCUUCGGUGGCGCGAUAGCGCCAACGUCCUCAACCUCCAAUGCAUCCCACCACAUGAAGAUGCCUGAAGAGCCUUGGUUUUUUG [G19A U109A]
2. GACCAAUCUGCCCUCACAGCUCGAGAACAUCUUCGGAUGCAGAGGAGGCAGGCUUCGGUGGCUCGAUAGCGCCAACGUCCUCAACCUCCAAUGCAUCCCACCACAUGAUGAUGCCUGAAGAGCCUUGGUUUUUUG [G17C G63U]
3. GACCAAUCUGCCCUCAGAGCUGGAGAACAUCUUCGGAUGCAGAGGAGGCAGGCUUCGGUGGCGCGAUAGCGCCAACGUCCUCAACCUCCUAUGCAUCCCACCACAAGAUGUUGCCUGAAGAGCCUUGGUUUUUUG [C22G A90U U106A A111U]
4. GACCAAUCUGCCCUCAGAGCUCGAGAACAUCUUCGGCUGCAGAGGAGGCAGGCUUCGGUGGCGUGAUAGCGCCAACGUCCUCAACCUCCAAUGCAUCCCACCACAUGAUGAUGCGUGAAGAGCCUUGGUUUUUUG [A37C C64U C115G]
5. GACCAAUCUGCCCUCAGAGCUCGAGAACAUCUUCGGAUGCAGCGGAGGCAGGCUUCGGUGGCGCGAUAGCGCCAACGUCCUCAACCUCCAAUGCAUCCCACCACAUGAUGAAGCCUGAAGAGCCUUCGUUUUUUG [A43C U112A G127C]

// result
[-5.74, -4.39, -3.25, -1.35, -2.51]
